- Tested on: MAP3K4;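 also: KINOMEscan kinase panel screen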
- Recorded conditions: concentration: 1 μM,replicates: in singlicate; n = 1
Consider the following compounds; for each one, report its %Inh.
Give bare numbers, in %.

Below: 4 compounds and their reported %Inh.
{"Compound": "CS(=O)c1ccc(-c2coc3ccc(-c4n[nH]c(=O)o4)cc23)cc1 (centres unmarked)", "%Inh (%)": 5}
{"Compound": "FC(F)(F)c1cc(Br)cc(Nc2nccc(-c3cnn4ncccc34)n2)c1", "%Inh (%)": 15}
{"Compound": "COc1cccc(C2=C(Nc3cccc(Cl)c3)C(=O)NC2=O)c1", "%Inh (%)": 15}
{"Compound": "Cn1ccc2ncnc(Oc3ccc(NC(=O)Nc4cccc(C(F)(F)F)c4)c(Cl)c3)c21", "%Inh (%)": 4}

Moving on to the next compound.
Ask | Check the records and state %Inh for Cc1n[nH]c2cc(Nc3ccnc(Nc4cccc(CN5CCOCC5)c4)n3)ccc12
Reply | 0

From: paper PMC5540273
